tested on: Candida albicans; assay: Antimicrobial activity against Candida albicans after 48 hrs by tube dilution method; assay type: functional
Listed next: entries and their corresponding MIC.
TEST READOUT: MIC (µM)

- COMPOUND: "O=[N+]([O-])c1ccccc1-c1ncc[nH]1"
  VAL: 33
- COMPOUND: "O=C(c1ccccc1Br)n1ccnc1-c1ccccc1Cl"
  VAL: 17
- COMPOUND: "O=C(c1ccccc1Br)n1ccnc1-c1cccc([N+](=O)[O-])c1"
  VAL: 16
- COMPOUND: "COc1ccc(-c2nccn2C(=O)c2ccccc2Br)cc1"
  VAL: 16
- COMPOUND: "O=[N+]([O-])c1cccc(-c2ncc[nH]2)c1"
  VAL: 33
- COMPOUND: "COc1ccc(-c2nccn2C(=O)c2ccc([N+](=O)[O-])cc2)cc1"
  VAL: 18
- COMPOUND: "COc1ccc(-c2ncc[nH]2)cc1"
  VAL: 65
- COMPOUND: "O=C(c1ccc([N+](=O)[O-])cc1)n1ccnc1-c1ccc(Cl)cc1"
  VAL: 19
- COMPOUND: "O=[N+]([O-])c1ccc(-c2ncc[nH]2)cc1"
  VAL: 33
- COMPOUND: "O=C(c1ccc([N+](=O)[O-])cc1)n1ccnc1-c1ccccc1[N+](=O)[O-]"
  VAL: 36
- COMPOUND: "c1ccc(-c2ncc[nH]2)cc1 [2-PHENYLIMIDAZOLE]"
  VAL: 43
- COMPOUND: "O=C(O)c1ccccc1-c1ncc[nH]1"
  VAL: 66

###

Listed next: entries and their corresponding EC50.
tested on: Punta Toro virus; assay: Antiviral activity against Punta Toro virus infected in african green monkey Vero cells assessed as reduction in virus-induced cytopathogenicity after 3 days; type: functional, organism-based; conditions: 72 h

- COMPOUND: "Nc1ncnc2c1ncn2C[C@H](O)CO [(S)-DHPA]"
  EC50: "> 250 µg/mL"
- COMPOUND: "O=C(c1ccc([N+](=O)[O-])cc1)n1ccnc1-c1ccccc1Cl"
  EC50: "> 100 µg/mL"
- COMPOUND: "O=C(c1ccccc1Br)n1ccnc1-c1ccc(Cl)cc1"
  EC50: "> 100 µg/mL"
- COMPOUND: "O=C(O)c1ccccc1-c1nccn1C(=O)c1ccc([N+](=O)[O-])cc1"
  EC50: "> 100 µg/mL"
- COMPOUND: "O=C(c1ccc([N+](=O)[O-])cc1)n1ccnc1-c1cccc(Cl)c1"
  EC50: "> 100 µg/mL"
- COMPOUND: "COc1ccc(-c2nccn2C(=O)c2ccc([N+](=O)[O-])cc2)cc1"
  EC50: "> 100 µg/mL"
- COMPOUND: "COc1ccc(-c2nccn2C(=O)c2ccccc2Br)cc1"
  EC50: "> 100 µg/mL"
- COMPOUND: "O=C(c1ccccc1Br)n1ccnc1-c1ccccc1[N+](=O)[O-]"
  EC50: "> 100 µg/mL"
- COMPOUND: "O=C(c1ccc([N+](=O)[O-])cc1)n1ccnc1-c1ccccc1[N+](=O)[O-]"
  EC50: "> 100 µg/mL"
- COMPOUND: "O=C(c1ccc([N+](=O)[O-])cc1)n1ccnc1-c1cccc([N+](=O)[O-])c1"
  EC50: "100 µg/mL"
- COMPOUND: "O=C(c1ccccc1Br)n1ccnc1-c1cccc([N+](=O)[O-])c1"
  EC50: "> 100 µg/mL"
